Target: Prothrombin (Homo sapiens)
Experiment: In vitro activity against thrombin was determined
recordedMetric: IC50 (nM)
Numbers only; they are read as nM.

Would you kindly share the measured IC50 for CN[C@H](Cc1ccccc1)C(=O)N1CCC[C@H]1C(=O)N[C@H](C=O)CCCN=C(N)N ?
8

Each recorded value in this set is attributed to ChEMBL document CHEMBL1127567.
